pIC50: −log10 of the molar value. Where a name gives a salt, the structure may show the parent alone.
Observed pIC50, system human JAK1 (a.a. 837-1142) (Homo sapiens).

Field pIC50 (human JAK1 (a.a. 837-1142) (Homo sapiens)), entry CCCOC(=O)N1CCC(N2CC(CC#N)(n3cc(-c4ncnc5[nH]ccc45)cn3)C2)CC1 : ≥ 8.30

Note to self: pIC50 of N#CCC1(n2ccc(-c3ncnc4[nH]ccc34)c2)CN(C2CCN(C(=O)c3c(F)cccc3F)CC2)C1 with human JAK1 (a.a. 837-1142) (Homo sapiens) was ≥ 8.30

Entry Cn1cnc(S(=O)(=O)N2CCC(N3CC(CC#N)(n4cc(-c5ncnc6[nH]ccc56)cn4)C3)CC2)c1 ; assay system human JAK1 (a.a. 837-1142) (Homo sapiens); pIC50 recorded at ≥ 8.30

// molecule N#CCC1(n2cc(-c3ncnc4[nH]ccc34)cn2)CN(C2CCN(C(=O)Nc3c(F)cccc3F)CC2)C1 , assay human JAK1 (a.a. 837-1142) (Homo sapiens), pIC50 value: ≥ 8.30

# pIC50 measured on human JAK1 (a.a. 837-1142) (Homo sapiens) for item N#CCC1(n2cc(-c3ncnc4[nH]ccc34)cn2)CN(C2CC3CCC(C2)N3C(=O)c2ccnc(C(F)(F)F)c2)C1 (centres unmarked) = 7.70 to 8.30

Query CC1(COC(=O)N2CCC(N3CC(CC#N)(n4cc(-c5ncnc6[nH]ccc56)cn4)C3)CC2)CC1 on human JAK1 (a.a. 837-1142) (Homo sapiens); pIC50 returned: 7.70 to 8.30

Assay human JAK1 (a.a. 837-1142) (Homo sapiens), sample N#CCC1(n2cc(-c3ncnc4[nH]ccc34)cn2)CN(C2CCN(Cc3ccc(C#N)c(F)c3)CC2)C1 , pIC50 read: 7.70 to 8.30

// assay human JAK1 (a.a. 837-1142) (Homo sapiens), entry CNCc1cc(C(=O)N2CCC(N3CC(CC#N)(n4cc(-c5ncnc6[nH]ccc56)cn4)C3)CC2)nc(C(F)(F)F)n1 [Example 371, trifluoroacetate salt] , pIC50 value = ≥ 8.30

* * *

molecular target: human JAK1 (a.a. 837-1142); assay: In vitro JAK kinase assay (HTRF, phosphorylation of a biotinylated peptide), JAK1; type: biochemical; settings: ratio of JAK2 IC50 to JAK1 IC50, measured at 1 mM ATP
outcomeMeasure: IC50 Ratio JAK2/JAK1
Number only, please.

N#CCC1(n2cc(-c3ncnc4[nH]ccc34)cn2)CN(C2CCN(Cc3c(F)cccc3C(F)(F)F)CC2)C1
9.7
N#CCC1(n2cc(-c3c(F)cnc4[nH]ccc34)cn2)CN(C2CCN(C(=O)c3ccncc3F)CC2)C1
2.8
N#CCC1(n2cc(-c3ncnc4[nH]ccc34)cn2)CN(C2CCN(C(=O)Nc3cc(F)cc(F)c3F)CC2)C1
5.7
N#CCC1(n2cc(-c3ncnc4[nH]ccc34)cn2)CN(C2CCN(C(=O)c3cc(Cl)sc3Cl)CC2)C1
2.8
N#CCC1(n2cc(-c3ncnc4[nH]ccc34)cn2)CN(C2CCN(C(=O)c3cc(F)c(F)c(F)c3)CC2)C1
10.2

Record COC(=O)c1cc(F)ccc1NC(=O)N1CCC(N2CC(CC#N)(n3cc(-c4ncnc5[nH]ccc45)cn3)C2)CC1 has human JAK1 (a.a. 837-1142) IC50 Ratio JAK2/JAK1 equal to 2.5

# lookup: COc1ccc(CN2CCC(N3CC(CC#N)(n4cc(-c5ncnc6[nH]ccc56)cn4)C3)CC2)c(Cl)c1OC on human JAK1 (a.a. 837-1142), IC50 Ratio JAK2/JAK1 = 2.3

* * *

Quick record: pIC50, Jak2 (a.a. 828-1132) (Homo sapiens (Human), UniProt O60674).
pIC50: −log10 of the molar value.

Some compounds with recorded pIC50:
N#CCC1(n2cc(-c3ncnc4[nH]ccc34)cn2)CN(C2CCN(C(=O)Nc3ccc(OC(F)(F)F)cc3)CC2)C1
7.30 to 8.00
N#CCC1(n2cc(-c3ncnc4[nH]ccc34)cn2)CN(C2CCN(Cc3cccc(Oc4ccccc4)c3)CC2)C1
7.00 to 7.30

Below: the item to evaluate.
Observed pIC50, Jak2 (a.a. 828-1132) (Homo sapiens (Human), UniProt O60674), N#CCC1(n2cc(-c3ncnc4[nH]ccc34)cn2)CN(C2CCN(Cc3cc4ccccc4o3)CC2)C1 : ≥ 8.00

* * *

target: human JAK1 (a.a. 837-1142); experiment: In vitro JAK kinase assay (HTRF, phosphorylation of a biotinylated peptide), JAK1; format: biochemical; settings: ratio of JAK2 IC50 to JAK1 IC50, measured at 1 mM ATP
Lab note: class by IC50 Ratio JAK2/JAK1, see one: < 5; two: ≥ 5 and < 9; three: ≥ 9

Solved entries (count: 5):
CS(=O)(=O)N1CCC(N2CC(CC#N)(n3cc(-c4c(C#N)cnc5[nH]ccc45)cn3)C2)CC1
one
N#CCC1(n2cc(-c3ncnc4[nH]ccc34)cn2)CN(C2CC3CCC(C2)N3Cc2c(F)ccc(F)c2Cl)C1 (stereo not shown)
one
N#CCC1(n2cc(-c3ncnc4[nH]ccc34)cn2)CN(C2CCN(C(=O)Nc3c(Cl)cccc3Cl)CC2)C1
three
COCCN(C)Cc1cc(C(=O)N2CCC(N3CC(CC#N)(n4cc(-c5ncnc6[nH]ccc56)cn4)C3)CC2)nc(C(F)(F)F)n1
three
N#CCC1(n2cc(-c3ncnc4[nH]ccc34)cn2)CN(C2CCN(C(=O)Nc3ccccc3C(F)(F)F)CC2)C1
three

Form: Item = N#CCC1(n2cc(-c3ncnc4[nH]ccc34)cn2)CN(C2CCN(C(=O)c3cccc(C(F)(F)F)c3)CC2)C1 ; Class = ?
one

Where would N#CCC1(n2cc(-c3ncnc4[nH]ccc34)cn2)CN(C2CCN(C(=O)Nc3ccsc3)CC2)C1 land among the classes by reported IC50 Ratio JAK2/JAK1?
one

Kindly identify the class of CCN(CC)Cc1cc(C(=O)N2CCC(N3CC(CC#N)(n4cc(-c5ncnc6[nH]ccc56)cn4)C3)CC2)nc(C(F)(F)F)n1 .
three

Where would N#CCC1(n2cc(-c3ncnc4[nH]ccc34)cn2)CN(C2CCN(C(=O)C3CCCCC3)CC2)C1 land among the classes by reported IC50 Ratio JAK2/JAK1?
three

# bin lookup: classify N#CCC1(n2ccc(-c3ncnc4[nH]ccc34)c2)CN(C2CCN(C(=O)c3cc(F)ccc3F)CC2)C1 by its IC50 Ratio JAK2/JAK1
two

Categorize the following entry: N#CCC1(n2cc(-c3ncnc4[nH]ccc34)cn2)CN(C2CCN(C(=O)C3(c4ccccc4)CC3)CC2)C1
one

Category lookup for the molecule N#CCC1(n2cc(-c3ccnc4[nH]ccc34)cn2)CN(C2CCN(C(=O)Nc3cnccc3C(F)(F)F)CC2)C1
three

Record N#CCC1(n2cc(-c3ncnc4[nH]ccc34)cn2)CN(C2CCN(C(=O)c3ccc(O)c(Cl)c3)CC2)C1 — which class?
two

Hello team, could you let me know which band the following molecule falls into: N#CCC1(n2cc(-c3ncnc4[nH]ccc34)cn2)CN(C2CCN(C(=O)c3cc(Cl)cc(C(F)(F)F)n3)CC2)C1
three

Exam item: assign N#CCC1(n2cc(-c3ncnc4[nH]ccc34)cn2)CN(C2CCN(C(=O)c3ccc4ncccc4c3)CC2)C1 to the correct category.
one

In plain terms, what class is N#CCC1(n2cc(-c3c(F)cnc4[nH]ccc34)cn2)CN(C2CCN(C(=O)c3cnc(C(F)(F)F)cn3)CC2)C1 ?
one

Given Cc1onc(-c2ccccc2)c1CN1CCC(N2CC(CC#N)(n3cc(-c4ncnc5[nH]ccc45)cn3)C2)CC1 , name the class its IC50 Ratio JAK2/JAK1 places it in.
three

Which class is correct for the following molecule? N#CCC1(n2cc(-c3ncnc4[nH]ccc34)cn2)CN(C2CCN(C(=O)c3ccc(O)c(F)c3)CC2)C1
three

Hi there! Could you help me figure out the category for CC1CC(N2CC(CC#N)(n3cc(-c4ncnc5[nH]ccc45)cn3)C2)CCN1C(=O)c1cccc(F)c1 (single isomer, unassigned) [Example 150] please?
two

Which category does the recorded IC50 Ratio JAK2/JAK1 put COc1ccc2nc(Cl)c(CN3CCC(N4CC(CC#N)(n5cc(-c6ncnc7[nH]ccc67)cn5)C4)CC3)cc2c1 in?
two

Bin this entry: N#CCC1(n2cc(-c3ncnc4[nH]ccc34)cn2)CN(C2CCN(C(=O)c3ccc(F)c(F)c3)CC2)C1
two

Place this molecule in its band: N#CCC1(n2cc(-c3ncnc4[nH]ccc34)cn2)CN(C2CCN(C(=O)c3ccc(-c4ccc(C#N)c(F)c4)c(F)c3)CC2)C1
three

# classify by IC50 Ratio JAK2/JAK1 band: N#CCC1(n2cc(-c3ncnc4[nH]ccc34)cn2)CN(C2CCN(C(=O)Nc3ccc(F)cc3Cl)CC2)C1
three

Dear colleague, I would appreciate it if you could identify the bin for CS(=O)(=O)N1CCC(N2CC(CC#N)(n3ccc(-c4ncnc5[nH]ccc45)c3)C2)CC1 and reply at your convenience.
one

Would you mind sorting N#CCC1(n2ccc(-c3ncnc4[nH]ccc34)c2)CN(C2CCN(C(=O)c3cccs3)CC2)C1 into the appropriate category?
two

Which band does Cc1nc(S(=O)(=O)N2CCC(N3CC(CC#N)(n4cc(-c5ncnc6[nH]ccc56)cn4)C3)CC2)cn1C fall in?
one
